This collection of values is drawn from patent US7557212B2.

pIC50 listing for selected molecules.
Target entity: CysLT1 (Cavia porcellus, UniProt Q2NNR5)
Sequence (Q2NNR5 1-340): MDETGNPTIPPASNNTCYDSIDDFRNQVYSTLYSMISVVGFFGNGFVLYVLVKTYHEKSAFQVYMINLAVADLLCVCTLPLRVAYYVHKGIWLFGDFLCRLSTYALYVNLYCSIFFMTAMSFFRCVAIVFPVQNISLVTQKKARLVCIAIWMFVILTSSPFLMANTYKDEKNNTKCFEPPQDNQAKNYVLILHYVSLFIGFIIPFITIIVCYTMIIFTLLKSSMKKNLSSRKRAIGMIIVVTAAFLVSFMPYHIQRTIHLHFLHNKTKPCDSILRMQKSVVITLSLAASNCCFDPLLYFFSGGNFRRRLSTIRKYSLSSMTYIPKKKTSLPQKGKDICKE
Please note pIC50 is a logarithmic value: minus log10 of concentration in mol/L. Answer with that number alone.

INSERT INTO measurements (molecule, result_type, measurement) VALUES
  ('O=C(O)CC1(CSC2c3cc(/C=C/c4ccc5cc(F)c(F)cc5n4)ccc3OCc3ncccc32)CC1 (stereo not shown) [Example 11]', 'pIC50', 9.57),
  ('O=C(O)CCSC1c2cc(OCc3ccc4cc(F)c(F)cc4n3)ccc2OCc2ncccc21 (single isomer, unassigned; (-)) [Example 35]', 'pIC50', 9.46),
  ('O=C(O)CCSC1c2cc(OCc3ccc4cc(F)c(Cl)cc4n3)ccc2OCc2ncccc21 (stereo not shown) [Example 4]', 'pIC50', 9.55),
  ('O=C(O)CCSC1c2ccccc2COc2ccc(OCc3ccc4cc(F)c(Cl)cc4n3)cc21 (stereo not shown) [Compound A, reference compound]', 'pIC50', 9.29),
  ('O=C(O)CCSC1c2cc(OCc3ccc4cc(F)c(F)cc4n3)ccc2OCc2ncccc21 (single isomer, unassigned; (+)) [Example 34]', 'pIC50', 8.92),
  ('O=C(O)CCSC1c2cc(OCc3ccc4cc(F)c(F)cc4n3)ccc2CCc2ncccc21 (stereo not shown) [Example 24]', 'pIC50', 9.22);

What is its pIC50 for CysLT1 (Cavia porcellus, UniProt Q2NNR5)? Entry: O=C(O)CCSC1c2cc(OCc3ccc4cc(F)c(F)cc4n3)ccc2OCc2ncccc21 (stereo not shown) [Example 1] 9.42

====

pIC50 listing for selected molecules.
Target chain: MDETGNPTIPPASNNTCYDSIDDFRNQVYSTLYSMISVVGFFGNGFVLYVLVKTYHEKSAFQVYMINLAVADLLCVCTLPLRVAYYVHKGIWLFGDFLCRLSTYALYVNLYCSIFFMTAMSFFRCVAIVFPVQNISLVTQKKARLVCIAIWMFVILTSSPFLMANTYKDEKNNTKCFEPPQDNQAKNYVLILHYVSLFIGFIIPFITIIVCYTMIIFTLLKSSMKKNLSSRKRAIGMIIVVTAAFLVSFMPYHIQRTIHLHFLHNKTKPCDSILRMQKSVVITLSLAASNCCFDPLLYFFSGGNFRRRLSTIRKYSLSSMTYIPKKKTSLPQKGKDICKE
Please note pIC50 is a logarithmic value: minus log10 of concentration in mol/L. Answer with that number alone.

INSERT INTO assay_data (molecule, result_type, measurement) VALUES
  ('O=C(O)CCSC1c2cc(OCc3ccc4cc(F)c(Cl)cc4n3)ccc2CCc2ncccc21 (single isomer, unassigned; (+)) [Example 43]', 'pIC50', 8.47),
  ('O=C(O)CCSC1c2cc(OCc3ccc4cc(F)c(Cl)cc4n3)ccc2CCc2ncccc21 (stereo not drawn) [Example 23]', 'pIC50', 9.47);

Next molecule, please.
Which pIC50 reading was recorded for the molecule O=C(O)CC1(CSC2c3cc(OCc4ccc5cc(F)c(F)cc5n4)ccc3OCc3ncccc32)CC1 (stereo not drawn) ? 9.85
